B1: Cytochrome c-551, P00099 (parent)
chain: MKPYALLSLLATGTLLAQGAWAEDPEVLFKNKGCVACHAIDTKMVGPAYKDVAAKFAGQAGAEAELAQRIKNGSQGVWGPIPMPPNAVSDDEAQTLAKWVLSQK

# Variants of: B1
# EXPERIMENTAL_CONTEXT: Pseudomonas aeruginosa (strain ATCC 15692 / DSM 22644 / CIP 104116 / JCM 14847 / LMG 12228 / 1C / PRS 101 / PAO1); pH 3.6; Thermal; DSC; sodium acetate 50 mM; reversible: yes; structure 451C; whole UniProt chain shown
Attribute: Tm
Numeric only. Scale: °C

Would you please look over these solved cases?
MKPYALLSLLATGTLLAQGAWAEDPEVLAKNKGCMACHAIDTKMVGPAYKDVAAKYAGQAGAEAYLAQRIKNGSQGVWGPIPMPPNAVSDDEAQTLAKWILSQK [F29A V35M F56Y E65Y V100I] : 82.4
MKPYALLSLLATGTLLAQGAWAEDPEVLAKNKGCMACHAIDTKMVGPAYKDVAAKYAGQAGAEAYLAQRIKNGSQGVWGPIPMPPNAVSDDEAQTLAKWVLSQK [F29A V35M F56Y E65Y] : 77.4
MKPYALLSLLATGTLLAQGAWAEDPEVLAKNKGCMACHAIDTKMVGPAYKDVAAKFAGQAGAEAELAQRIKNGSQGVWGPIPMPPNAVSDDEAQTLAKWVLSQK [F29A V35M] : 72.4
MKPYALLSLLATGTLLAQGAWAEDPEVLFKNKGCVACHAIDTKMVGPAYKDVAAKYAGQAGAEAYLAQRIKNGSQGVWGPIPMPPNAVSDDEAQTLAKWILSQK [F56Y E65Y V100I] : 73.3

Attention now turns to another entry.
Task: Need Tm, item MKPYALLSLLATGTLLAQGAWAEDPEVLFKNKGCVACHAIDTKMVGPAYKDVAAKYAGQAGAEAYLAQRIKNGSQGVWGPIPMPPNAVSDDEAQTLAKWVLSQK [F56Y E65Y]
Result: 69
